Kindly supply the reported max response values for the records listed here.
# Tested on: KB-3-1
# Assay Info: Cytotoxic Profiling of Annotated Libraries Using Quantitative High-Throughput Screening (AID 1296008); further: on the % scale 0 is the no-effect control and ±100 the full control effect; nearly all actives have a fitted effect of over 60% in size
# Run Parameters: Five cell lines viability, CellTiter-Glo ATP luminescence, 48-72 h; stronger effect = lower value
Results filed as inconclusive are left out.
Numbers only, in %.

Worked set:
Req: Look up KB-3-1 data: max response of `COc1cc(C)c(/C=C/C(C)=C/C=C/C(C)=C/C(=O)O)c(C)c1C` , then report it.
Resp: -4.57

Req: Lab note: KB-3-1 assay, enter max response for `O=C(O)CCC/C=C\C[C@@H]1[C@@H](/C=C/[C@@H](O)COc2cccc(C(F)(F)F)c2)[C@H](O)C[C@@H]1O` here
Resp: -14.2

Req: Give the observed max response of CC(CN(C)C)CN1c2ccccc2Sc2ccc(C(F)(F)F)cc21 (configuration not stated) for KB-3-1.
Resp: -6.33

Req: # lookup: KB-3-1 max response, key = `CCCCC`
Resp: 7.19

Req: Please indicate recorded max response of `CC(C)CN(C[C@@H](OP(=O)(O)O)[C@H](Cc1ccccc1)NC(=O)O[C@H]1CCOC1)S(=O)(=O)c1ccc(N)cc1` measured with KB-3-1.
Resp: 1.96

Req: # return max response for `N[C@H](CC(=O)O)C(=O)O` , test system: KB-3-1
Resp: 11.5

Req: State the measured max response (KB-3-1) of `CN(C)CCC=C1c2ccccc2C(C)(C)c2ccccc21`
Resp: -19.1

Req: Look up and report measured max response (KB-3-1) for the following molecule: `COc1ccc(C(=O)/C(Br)=C\C(=O)O)cc1`
Resp: 19.2

Go through the items and report each one's max response.
1. CCOC(=O)Cc1ccc(-c2ccccc2)cc1
2. N=C(N)n1cccn1
3. OCC1(CO)COC(C(Cl)(Cl)Cl)OC1

Resp:
1. 6.55
2. 3.42
3. 16.6

Req: Under KB-3-1: report max response of CC(=O)O[C@@H]1CC2CCC1(C)C2(C)C (some centres not stated) .
Resp: -0.31

----------
# System: CP256
# Assay Info: qHTS profiling for inhibitors of Plasmodium falciparum proliferation (AID 504749); further: nearly all actives have a fitted effect of over 60% in size
# Run Parameters: P. falciparum in erythrocytes, SYBR Green DNA, 72 h; series mostly up to 28.7 µM
Inconclusive results are not listed. Active and inactive are the calls of the source. The call rests on the fitted dose curve; in most records, active means well fitted inhibition curve with a large enough effect; inconclusive means small, poorly fitted or top-dose-only effect; inactive means flat fitted curve, though single readings scatter.
Hello, when you answer, please use one of the following outcomes: Yes = active, No = inactive

Sample answers from the record:
Req: What did the test return for `CC(=O)c1ccc2c(c1)N(CCCN1CCN(CCO)CC1)c1ccccc1S2` ?
Resp: Yes

Req: Hello, I am checking results. What call was entered for CCCC(CCC)C(=O)OC1C[C@H]2CC[C@@H](C1)[N+]2(C)C (stereo partly specified) ?
Resp: Yes

Req: What was the test verdict on `C=CCCCCCCCCC(=O)OC` ?
Resp: No

Req: Any idea what this test logged for `CCN(CC)CCOC(=O)c1cccnc1` ?
Resp: No

Continuing:
Req: What call does the record list for `CC1=CC(=C(c2ccc(N)cc2)c2ccc(N)cc2)C=CC1=N` ?
Resp: Yes

Req: Outcome? `O=C(CCCN1CCC(C(=O)c2ccc(F)cc2)CC1)c1ccc(F)cc1`
Resp: No

----------
# Tested Target: Voltage-gated inwardly rectifying potassium channel KCNH2 (Homo sapiens) (UniProt Q12809)
# Sequence (Q12809 whole entry, looked up): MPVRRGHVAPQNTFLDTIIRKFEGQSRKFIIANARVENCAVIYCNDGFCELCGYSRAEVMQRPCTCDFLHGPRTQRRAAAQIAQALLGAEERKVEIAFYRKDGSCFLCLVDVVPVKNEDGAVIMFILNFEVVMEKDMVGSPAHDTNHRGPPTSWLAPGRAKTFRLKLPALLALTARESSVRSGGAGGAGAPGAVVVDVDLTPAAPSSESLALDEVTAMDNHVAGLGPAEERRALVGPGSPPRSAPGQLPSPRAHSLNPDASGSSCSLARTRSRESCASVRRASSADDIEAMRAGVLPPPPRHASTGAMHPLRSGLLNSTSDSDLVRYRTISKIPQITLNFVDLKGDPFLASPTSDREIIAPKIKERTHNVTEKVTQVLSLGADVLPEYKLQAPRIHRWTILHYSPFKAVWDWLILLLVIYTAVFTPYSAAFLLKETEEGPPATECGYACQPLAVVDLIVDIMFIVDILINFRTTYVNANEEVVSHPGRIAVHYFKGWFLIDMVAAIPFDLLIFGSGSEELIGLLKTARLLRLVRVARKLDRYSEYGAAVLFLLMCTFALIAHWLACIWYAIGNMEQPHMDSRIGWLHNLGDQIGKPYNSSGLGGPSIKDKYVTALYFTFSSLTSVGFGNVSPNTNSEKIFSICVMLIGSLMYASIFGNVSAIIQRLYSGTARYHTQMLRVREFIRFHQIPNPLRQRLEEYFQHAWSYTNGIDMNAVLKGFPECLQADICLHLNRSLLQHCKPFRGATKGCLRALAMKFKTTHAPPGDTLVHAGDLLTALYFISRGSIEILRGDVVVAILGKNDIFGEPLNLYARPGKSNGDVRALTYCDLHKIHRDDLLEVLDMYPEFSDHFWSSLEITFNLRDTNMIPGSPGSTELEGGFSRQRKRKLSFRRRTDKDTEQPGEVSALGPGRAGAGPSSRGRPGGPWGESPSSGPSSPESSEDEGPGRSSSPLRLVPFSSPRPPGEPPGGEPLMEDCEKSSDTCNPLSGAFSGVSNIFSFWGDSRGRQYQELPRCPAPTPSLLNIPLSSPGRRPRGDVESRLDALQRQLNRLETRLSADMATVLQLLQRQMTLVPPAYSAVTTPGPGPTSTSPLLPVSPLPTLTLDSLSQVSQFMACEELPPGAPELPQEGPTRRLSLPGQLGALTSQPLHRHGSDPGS
# Assay Info: qHTS Assay for Small Molecule Inhibitors of the Human hERG Channel Activity (AID 588834);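 further: lower thallium flux fluorescence means stronger hERG block; nearly all actives have a fitted effect of over 50% in size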
# Run Parameters: U2OS BacMam hERG, FluxOR thallium flux fluorescence; series mostly up to 46.1 µM
Records with an inconclusive call do not appear. Activity calls are given as the source filed them. The call rests on the fitted dose curve; in most records, active means well fitted inhibition curve with a large enough effect; inconclusive means small, poorly fitted or top-dose-only effect; inactive means flat fitted curve, though single readings scatter.
Respond with a class label; see T (active), F (inactive)

Below are worked cases with known answers.
Req: Per the records of this test, what outcome belongs to `CC(C)CN(C[C@@H](OP(=O)(O)O)[C@H](Cc1ccccc1)NC(=O)O[C@H]1CCOC1)S(=O)(=O)c1ccc(N)cc1` ?
Resp: F

Req: Can you look up the reported call for CCCC1C(=O)N2C(N(C)C)=Nc3ccc(C)cc3N2C1=O (centres undefined) for me?
Resp: F

Req: Lab log entry: `CCN(CC)CCOC(=O)c1cccnc1` — outcome as called in the assay?
Resp: F

More entries:
Req: Assay outcome for `CCCCC[C@H](O)/C=C/[C@H]1[C@H](O)CC(=O)[C@@H]1C/C=C\CCCC(=O)O` : what was it?
Resp: F

Req: Any idea what this test logged for `Cc1ncc(COP(=O)(O)O)c(CN)c1O` ?
Resp: F

Req: Status in this test for CC(=O)Nc1c(I)c(C(=O)N[C@H]2C(O)O[C@H](CO)[C@@H](O)[C@@H]2O)c(I)c(N(C)C(C)=O)c1I (some centres undefined) ?
Resp: F

Req: Write down the call the test reported for this molecule. Item: `CC(C)CN(C[C@@H](O)[C@H](Cc1ccccc1)NC(=O)O[C@@H]1CCOC1)S(=O)(=O)c1ccc(N)cc1`
Resp: F

Req: // outcome(item) with item = `NC[C@H]1O[C@H](O[C@H]2[C@H](O)[C@@H](O[C@H]3O[C@H](CO)[C@@H](O)[C@H](N)[C@H]3O)[C@H](N)C[C@@H]2N)[C@H](N)C[C@@H]1O`
Resp: F

Req: Given CC(CN1c2ccccc2Sc2cccnc21)N(C)C (centres undefined) , state the outcome it received in this test.
Resp: T
